B1: HDV Ribozyme (parent)
chain: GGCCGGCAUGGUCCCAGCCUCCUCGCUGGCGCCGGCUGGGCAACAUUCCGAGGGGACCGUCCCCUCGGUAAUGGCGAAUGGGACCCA

Variants of: B1
Test: self-cleavage, relative activity (ratio to wild type); higher = more cleavage; co-transcriptional
Catalogue of self-cleavage values

- Sequence text: "UGCCGGCAUGGUCCCAGCCUCCUCGCUGGCGCCGGCUGGGCAACAUUCCGAGGGGACUGUCCCCUCGGUAAUGGCGAAUGGGACCCA [G1U C58U]"
  self-cleavage: 0.401
- Sequence text: "GGCCGGCAUGGUCCCAGCCUCCUCGCUGGCGCUGGCUCGGCAACAUUCCGAGGGGACCGUCCCCUCGGUAAUGGCGAAUGGGACCCA [C33U G38C]"
  self-cleavage: 0.125
- Sequence text: "GGCCGGCACGGUCCCAGCCUCCUCGCUGGCGCCGGCUGGGCAACAUUCCGAGGGGUCCGUCCCCUCGGUAAUGGCGAAUGGGACCCA [U9C A56U]"
  self-cleavage: 1.04
- Sequence text: "GGCCGGCAUGGUCACAGCCUCCUCGCUGGCGCCGGCUGGGCAACAUUCCGAGGGGACCGUCCCCUCGGUGAUGGCGAAUGGGACCCA [C14A A70G]"
  self-cleavage: 0.665
- Sequence text: "GGCCGGCAUGGUCCCAGCCUCCUCGCUGGCGCCGGCUGGGCAACAUUCCGCGGGUACCGUCCCCUCGGUAAUGGCGAAUGGGACCCA [A51C G55U]"
  self-cleavage: 0.944
- Sequence text: "GGCCGGCAUGGUCCCAGCCUCCUCGCUGGCGCCGGCUGGGCAACAAUCCGAGGGGACCGUCCCCUCGGUAAUGGCGAAUGGGACCCU [U46A A87U]"
  self-cleavage: 0.76
- Sequence text: "CGCCGGCAUGGUCCCAGCCUCCUCGCUGGCGCCGGCUGGGCAACAUUCCGAGGGGACCGUCCCCUCGGUAAUGGCGAAUAGGACCCA [G1C G80A]"
  self-cleavage: 0.0405
- Sequence text: "GGCCGGCAUGGUCCCAGCCUCCUCGCUGGCGCCGGCUGGGCAACAUUCCGAGGGGACCGUCCCCUCGUUAGUGGCGAAUGGGACCCA [G68U A71G]"
  self-cleavage: 1.04
- Sequence text: "GGCCGGCAUGGUCCCAGCCUCCCCGCUGGCGCCGGCUGGGCAACAUUCCGAGGGGACCGUCCCGUCGGUAAUGGCGAAUGGGACCCA [U23C C64G]"
  self-cleavage: 0.76
- Sequence text: "GGCCGGCAUGGUCCCAGCCUCCUCGCUGGCGCCGGCUGGGCAACAUUCCGAGGGGACCGUCCCCUCGGUAAUGGCGAAUCGGACCCG [G80C A87G]"
  self-cleavage: 0.211
- Sequence text: "GGCCGGCAUGGUCCCAGCCUCCCCGCUGGCGCCGGCUGGGCAACAUUCCGAGGGGACCGUGCCCUCGGUAAUGGCGAAUGGGACCCA [U23C C61G]"
  self-cleavage: 0.945
